target_desc: IL16_4, Q14005
Sequence (Q14005 1229-1329): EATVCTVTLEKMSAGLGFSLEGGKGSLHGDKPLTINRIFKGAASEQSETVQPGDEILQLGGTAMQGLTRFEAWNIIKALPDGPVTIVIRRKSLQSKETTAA
experiment_summary: holdup assay
Set-up: key: below the threshold = too weak to quantify, mostly under pKd 3.1 to 4
measurement_conditions: plain residues with an end cap or a label only (N-terminal biotin on a linker: ado-ado)
endpoint: pKd

EDGESWEYQI [TRPV6, Q9H1D0] | 3.5
QKAPTKEFYA [SDC2, P34741] | below the threshold
RFQQRMQTHV [KIRREL1, Q96J84] | below the threshold
QSYPSKHDYV [CLDN18, P56856] | 3.78
LESTTVGTSV [KARS1, Q15046] | below the threshold

QUERY: Quick one: pKd of SFISKKEWYV [NECTIN1, Q15223] ?
RESULT: below the threshold

QUERY: Quick one: pKd of KPGKGSETVV [FZD4, Q9ULV1] ?
RESULT: below the threshold

QUERY: Quick one: pKd of PSHPRLQTHV [KIRREL2, Q6UWL6] ?
RESULT: below the threshold
